Tested on: HL-60
ASSAY_TEXT: Cytotoxicity against human HL60 cells after 72 hrs by MTT assay
Format: functional, cell-based
COND: HL-60, 72 h
pIC50: −log10 of the molar value.
MEASURED_PROPERTY: pIC50

given_smiles=CO[C@@H]1O[C@@]2(OC)C[C@@](C)(O)[C@H]3C[C@@]4(C)CC[C@H]([C@@H](C)/C=C\C=C(C)C)[C@@H]4C/C=C/1[C@H]32 measurement=6.10
given_smiles=CC(C)=C/C=C\[C@H](C)[C@H]1CC[C@]2(C)C[C@@H]3C(C)=CC(=O)[C@H]3/C(CO)=C\C[C@@H]12 measurement="< 4.30"
given_smiles=CC(C)=C/C=C\[C@H](C)[C@H]1CC[C@]2(C)C[C@H]3[C@H]4/C(=C\C[C@@H]12)C(=O)O[C@H]4C[C@@]3(C)O measurement="< 4.30"

---

ASSAY_TEXT: Cytotoxicity against human G3K cells after 72 hrs by MTT assay
Format: functional, cell-based
Where a name gives a salt, the structure may show the parent alone.
MEASURED_PROPERTY: IC50 (µM)

compound=CO[C@@H]1O[C@]2(OC)C[C@@](C)(O)[C@H]3C[C@@]4(C)CC[C@H]([C@@H](C)/C=C\C=C(C)C)[C@@H]4C/C=C/1[C@@H]32 value_prefix== measurement=19.1
compound="COc1cccc2c1C(=O)c1c(O)c3c(c(O)c1C2=O)C[C@@](O)(C(=O)CO)C[C@@H]3O[C@H]1C[C@H](N)[C@H](O)[C@H](C)O1 [DOXORUBICIN HYDROCHLORIDE]" value_prefix== measurement=45
compound=CC(C)=C/C=C\[C@H](C)[C@H]1CC[C@]2(C)C[C@H]3[C@@H]4/C(=C\C[C@@H]12)C(=O)O[C@]4(O)C[C@@]3(C)O value_prefix=> measurement=20
compound=CC(C)=C/C=C\[C@H](C)[C@H]1CC[C@]2(C)C[C@@H]3C(C)=CC(=O)[C@H]3/C(CO)=C\C[C@@H]12 value_prefix== measurement=1.9
compound=CC(C)=C/C=C\[C@H](C)[C@H]1CC[C@]2(C)C[C@@H]3C(C)=CC(=O)[C@H]3/C(C=O)=C\C[C@@H]12 value_prefix== measurement=16.8
compound=CO[C@H]1C[C@H]2[C@@H]([C@@H](C)/C=C\C=C(C)C)CC[C@]2(C)C[C@H]2[C@H]3C1=CO[C@H]3C[C@@]2(C)O value_prefix=> measurement=20

---

# pIC50 per entry
ASSAY_TEXT: Cytotoxicity against human G3K cells after 72 hrs by MTT assay
Type: functional, cell-based
pIC50: −log10 of the molar value.
MEASURED_PROPERTY: pIC50

given_smiles=CC(C)=C/C=C\[C@H](C)[C@H]1CC[C@]2(C)CC3=C(C(=O)C[C@H]3C)/C(CO)=C\C[C@@H]12 measured_property=pIC50 measurement="< 4.70"
given_smiles=CC(C)=C/C=C\[C@H](C)[C@H]1CC[C@]2(C)C[C@H]3[C@@H](C(=O)C[C@@]3(C)O)/C(C=O)=C\C[C@@H]12 measured_property=pIC50 measurement=5.17
given_smiles=CC(C)=C/C=C\[C@H](C)[C@H]1CC[C@]2(C)CC3=C(C(=O)C[C@H]3C)/C(C=O)=C\C[C@@H]12 measured_property=pIC50 measurement="< 4.70"
given_smiles=CC(C)=C/C=C\[C@H](C)[C@H]1CC[C@]2(C)C[C@@H]3C(C)=CC(=O)[C@@H]3/C(C=O)=C\C[C@@H]12 measured_property=pIC50 measurement=5.02
given_smiles=CC(C)=C/C=C\[C@H](C)[C@H]1CC[C@]2(C)C[C@H]3[C@@H]4/C(=C\C[C@@H]12)CO[C@@H]4C[C@@]3(C)O measured_property=pIC50 measurement="< 4.70"
given_smiles=CO[C@H]1O[C@]2(OC)C[C@@](C)(O)[C@H]3C[C@@]4(C)CC[C@H]([C@@H](C)/C=C\C=C(C)C)[C@@H]4C/C=C/1[C@@H]32 measured_property=pIC50 measurement="< 4.70"
given_smiles=CC(C)=C/C=C\[C@H](C)[C@H]1CC[C@]2(C)C[C@H]3[C@H]4/C(=C\C[C@@H]12)C(=O)O[C@H]4C[C@@]3(C)O measured_property=pIC50 measurement="< 4.70"
given_smiles=CC(C)=C/C=C\[C@H](C)[C@H]1CC[C@]2(C)C[C@H]3[C@H](C(=O)C[C@@]3(C)O)/C(C=O)=C\C[C@@H]12 measured_property=pIC50 measurement="< 4.70"

---

Test system: Escherichia coli
ASSAY_TEXT: Antimicrobial activity against Escherichia coli ATCC 11775 at 1 ug after 24 hrs by paper disc agar diffusion method
Format: functional, organism-based
COND: DSM 30083 = JCM 1649 = ATCC 11775
Calls of active or inactive are those of the source. The rule behind the calls is not given here.
MEASURED_PROPERTY: Activity

given_smiles=CO[C@H]1O[C@]2(OC)C[C@@](C)(O)[C@H]3C[C@@]4(C)CC[C@H]([C@@H](C)/C=C\C=C(C)C)[C@@H]4C/C=C/1[C@@H]32 measured_property=Activity measurement=inactive
given_smiles=CC(C)=C/C=C\[C@H](C)[C@H]1CC[C@]2(C)C[C@@H]3C(C)=CC(=O)[C@H]3/C(CO)=C\C[C@@H]12 measured_property=Activity measurement=inactive
given_smiles=CC(C)=C/C=C\[C@H](C)[C@H]1CC[C@]2(C)C[C@H]3[C@@H]4/C(=C\C[C@@H]12)C(=O)O[C@]4(O)C[C@@]3(C)O measured_property=Activity measurement=inactive

---

Reported IC50 values are given for each entry in this list.
System: HL-60
ASSAY_TEXT: Cytotoxicity against human HL60 cells after 72 hrs by MTT assay
Type: functional, cell-based
COND: HL-60, 72 h
MEASURED_PROPERTY: IC50 (µM)

given_smiles=CC(C)=C/C=C\[C@H](C)[C@H]1CC[C@]2(C)C[C@H]3[C@H](C(=O)C[C@@]3(C)O)/C(C)=C\C[C@@H]12 measured_property=IC50 unit_annotation=µM measurement=7
given_smiles=CO[C@H]1O[C@@]2(OC)C[C@@](C)(O)[C@H]3C[C@@]4(C)CC[C@H]([C@@H](C)/C=C\C=C(C)C)[C@@H]4C/C=C/1[C@H]32 measured_property=IC50 unit_annotation=µM measurement=1.7
given_smiles=CC1=CC(=O)[C@H]2/C(C=O)=C\C[C@H]3[C@@H]([C@@H](C)/C=C\[C@@H](O)C(C)(C)O)CC[C@]3(C)C[C@H]12 measured_property=IC50 unit_annotation=µM measurement=7.2

Taken from ChEMBL document CHEMBL4130606.
